Target: glucagon receptor (UniProt P47871 26-477, limits assumed)
Sequence (P47871 26-477 limits assumed): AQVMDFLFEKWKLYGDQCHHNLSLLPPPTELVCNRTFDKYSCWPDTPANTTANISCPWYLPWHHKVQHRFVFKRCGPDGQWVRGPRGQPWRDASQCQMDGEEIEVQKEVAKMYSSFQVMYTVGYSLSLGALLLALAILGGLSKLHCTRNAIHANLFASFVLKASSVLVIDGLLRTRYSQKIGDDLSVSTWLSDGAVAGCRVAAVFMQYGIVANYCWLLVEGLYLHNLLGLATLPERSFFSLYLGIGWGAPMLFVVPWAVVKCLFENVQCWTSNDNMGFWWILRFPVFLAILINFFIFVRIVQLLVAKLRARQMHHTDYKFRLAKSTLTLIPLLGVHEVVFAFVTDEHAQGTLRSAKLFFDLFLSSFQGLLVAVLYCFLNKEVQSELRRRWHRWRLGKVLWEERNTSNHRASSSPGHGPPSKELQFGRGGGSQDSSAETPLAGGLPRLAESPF
Assay: cell-based or functional assay
Where no end group is shown, it is not given here. [ ]: non-standard residue; d: D form. The star is where a group is joined. PEG 40 kDa = PEG (40 kDa) covalently attached to Cys; Myristoyl = CCCCCCCCCCCCCC(=O)*; Aib = CC(C)(N)C(=O)O
VALUE_TYPE: EC50 (nM)
Note: unit nM is implicit; provide only the numeric part.

Worked cases, EC50 given:
YXQGTFTSDYSIYLDXQAAXEFVNWLLAGGPSSGAPPPSC (Orn at position 16; AIB at position 20) [mt-275] ... 0.0671
Y[Aib]EGTFTSDK(Myristoyl)SIYLDKQAA[Aib]EFVCWLLAGGPSSGAPPPS-NH2 (also: C-terminal amidation listed at position 40 of 39-residue chain) [mt-337] ... 106
Y[Aib]QGTFTSDYSIYLDKQAA[Aib]EFVC(PEG 40 kDa)WLLAG-NH2 [mt-281] ... 0.282

Consider the record given below.
[ask] Please report the recorded EC50 for Y[Aib]EGTFTSDKSIYLDKQAA[Aib]EFVCWLLAGGPSSGAPPPS-NH2 (also: C-terminal amidation listed at position 40 of 39-residue chain) [mt-338] .
[reply] 295
